- test-system: T1, CRBN, Q96SW2;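 note: pooled lentiviral library of zinc finger degron-EGFP fusions in mCherry-positive Jurkat cells, FACS-sorted after compound exposure, with degron abundance counted by next-generation sequencing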
- T1 chain: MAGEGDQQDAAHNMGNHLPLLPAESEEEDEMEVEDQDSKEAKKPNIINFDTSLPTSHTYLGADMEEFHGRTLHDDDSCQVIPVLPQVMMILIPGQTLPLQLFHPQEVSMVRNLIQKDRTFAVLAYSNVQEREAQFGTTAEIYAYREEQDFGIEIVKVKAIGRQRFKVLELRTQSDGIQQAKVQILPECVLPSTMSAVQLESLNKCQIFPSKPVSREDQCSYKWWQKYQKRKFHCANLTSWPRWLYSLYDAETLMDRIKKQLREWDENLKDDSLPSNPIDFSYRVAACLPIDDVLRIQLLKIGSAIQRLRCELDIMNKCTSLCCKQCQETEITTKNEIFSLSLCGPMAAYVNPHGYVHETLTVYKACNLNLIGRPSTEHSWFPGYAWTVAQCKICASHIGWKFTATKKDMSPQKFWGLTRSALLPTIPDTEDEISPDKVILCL
- method-notes: log2 fold change of degron read counts, EGFP-low vs EGFP+ sorted cells (limma voom), compound-induced degradation; higher = more compound-induced degradation of the degron-EGFP fusion; degrons are variants of IKZF1/3 zinc finger 2; compound dose not given here
- run-parameters: Jurkat; 18 h; compound: compound 19 (5-tert-butyl-thalidomide)
The full ranking holds about 8,300 sequences; the median of “log2 fold change of degron read counts, EGFP-low vs EGFP+ sorted cells (limma voom), compound-induced degradation” is about -1.1, and the highest 2% start at about 3.2. Many of the other results were omitted from the sample, so the highest values are more common in it than they were.
Record form. Attribute: log2 fold change of degron read counts. Fill in for each entry.
// no unit, no text: just the number

Query FGCDVCGAMFTQKGNLLRHIKL [46F_47G_49D_50V_52G_53A_54M_55F_67L_, Q9UKT9] yields log2 fold change of degron read counts of 0.868

What the record says about FQCDICGAPFTQKGNLLRHIKL [46F_47Q_49D_50I_52G_53A_54P_55F_67L_, Q9UKT9] : log2 fold change of degron read counts is 2.56

Recorded result, LKCEICGFSCTQKGNLLRHIKL [46L_47K_49E_50I_52G_53F_54S_55C_67L_, Q9UKT9] , log2 fold change of degron read counts: 1.07

The measured log2 fold change of degron read counts associated with FFCDQCGAAFTQKGNLLRHIKL [46F_47F_49D_50Q_52G_53A_54A_55F_67L_, Q9UKT9] reads 0.0639

Note to self: log2 fold change of degron read counts recorded for FCCPICGANFTQKGNLLRHIKL [46F_47C_49P_50I_52G_53A_54N_55F_67L_, Q9UKT9] was 2.07

Record LGCEICGFCCTQKGNLLRHIKL [46L_47G_49E_50I_52G_53F_54C_55C_67L_, Q9UKT9] . Reported log2 fold change of degron read counts: -0.15

Kindly note the recorded log2 fold change of degron read counts for FDCDICGATFTQKGNLLRHIKL [46F_47D_49D_50I_52G_53A_54T_55F_67L_, Q9UKT9] , which is -0.229

The sequence listed as FFCDICGADFTQKGNLLRHIKL [46F_47F_49D_50I_52G_53A_54D_55F_67L_, Q9UKT9] has a reported log2 fold change of degron read counts of -0.121

Sure, the documented log2 fold change of degron read counts for FACPVCGAVFTQKGNLLRHIKL [46F_47A_49P_50V_52G_53A_54V_55F_67L_, Q9UKT9] is 3.09

The recorded log2 fold change of degron read counts for FVCEVCGAWFTQKGNLLRHIKL [46F_47V_49E_50V_52G_53A_54W_55F_67L_, Q9UKT9] is -1.7

Entry FCCDICGAPFTQKGNLLRHIKL [46F_47C_49D_50I_52G_53A_54P_55F_67L_, Q9UKT9] , log2 fold change of degron read counts reported as 2.7

Form: sequence = FNCPVCGAKFTQKGNLLRHIKL [46F_47N_49P_50V_52G_53A_54K_55F_67L_, Q9UKT9] ; log2 fold change of degron read counts = 1.67

sequence FICEICGRFFTQKGNLLRHIKL [46F_47I_49E_50I_52G_53R_54F_55F_67L_, Q9UKT9] , log2 fold change of degron read counts observed: -1.91

Recorded log2 fold change of degron read counts (sequence FWCPVCGAKFTQKGNLLRHIKL [46F_47W_49P_50V_52G_53A_54K_55F_67L_, Q9UKT9] ): 2.74

Form field log2 fold change of degron read counts, entry FFCDICGAPFTQKGNLLRHIKL [46F_47F_49D_50I_52G_53A_54P_55F_67L_, Q9UKT9] : 3.92

Record summary for FMCPVCGAKFTQKGNLLRHIKL [46F_47M_49P_50V_52G_53A_54K_55F_67L_, Q9UKT9] : reported log2 fold change of degron read counts = -0.124

// FDCPICGHFFTQKGNLLRHIKL [46F_47D_49P_50I_52G_53H_54F_55F_67L_, Q9UKT9] : log2 fold change of degron read counts value = -1.89

Form: sequence = FKCPVCGAKFTQKGNLLRHIKL [46F_47K_49P_50V_52G_53A_54K_55F_67L_, Q9UKT9] ; log2 fold change of degron read counts = -1.68

So for FVCDQCGAPFTQKGNLLRHIKL [46F_47V_49D_50Q_52G_53A_54P_55F_67L_, Q9UKT9] , the logged log2 fold change of degron read counts turned out to be -1.33

For this sequence ( LCCEICGFSCTQKGNLLRHIKL [46L_47C_49E_50I_52G_53F_54S_55C_67L_, Q9UKT9] ), measured log2 fold change of degron read counts is 2.55

The measured log2 fold change of degron read counts associated with FGCPVCGAKFTQKGNLLRHIKL [46F_47G_49P_50V_52G_53A_54K_55F_67L_, Q9UKT9] reads 3.82

Lab note: FACPVCGAKFTQKGNLLRHIKL [46F_47A_49P_50V_52G_53A_54K_55F_67L_, Q9UKT9] gave log2 fold change of degron read counts of 3.4

Measured log2 fold change of degron read counts of FVCEICGRKFTQKGNLLRHIKL [46F_47V_49E_50I_52G_53R_54K_55F_67L_, Q9UKT9] : -1.83

Notebook: LMCEICGFSCTQKGNLLRHIKL [46L_47M_49E_50I_52G_53F_54S_55C_67L_, Q9UKT9] , log2 fold change of degron read counts read as 1.25

get_value(item= FVCDICGAPFTQKGNLLRHIKL [46F_47V_49D_50I_52G_53A_54P_55F_67L_, Q9UKT9] , readout=log2 fold change of degron read counts) returns 1.63

Field log2 fold change of degron read counts (entry FWCDICGATFTQKGNLLRHIKL [46F_47W_49D_50I_52G_53A_54T_55F_67L_, Q9UKT9] ) reads 2.74

Record FYCDICGAPFTQKGNLLRHIKL [46F_47Y_49D_50I_52G_53A_54P_55F_67L_, Q9UKT9] . Reported log2 fold change of degron read counts: 3.86

// log2 fold change of degron read counts value for FWCDICGAPFTQKGNLLRHIKL [46F_47W_49D_50I_52G_53A_54P_55F_67L_, Q9UKT9] : 2.91

Kindly note the recorded log2 fold change of degron read counts for FHCPVCGAKFTQKGNLLRHIKL [46F_47H_49P_50V_52G_53A_54K_55F_67L_, Q9UKT9] , which is 2.35
